Listed here are compounds together with their documented log10 of IC50.
# measured.target: Neutrophil collagenase (Homo sapiens, UniProt P22894)
# Sequence (P22894 whole entry): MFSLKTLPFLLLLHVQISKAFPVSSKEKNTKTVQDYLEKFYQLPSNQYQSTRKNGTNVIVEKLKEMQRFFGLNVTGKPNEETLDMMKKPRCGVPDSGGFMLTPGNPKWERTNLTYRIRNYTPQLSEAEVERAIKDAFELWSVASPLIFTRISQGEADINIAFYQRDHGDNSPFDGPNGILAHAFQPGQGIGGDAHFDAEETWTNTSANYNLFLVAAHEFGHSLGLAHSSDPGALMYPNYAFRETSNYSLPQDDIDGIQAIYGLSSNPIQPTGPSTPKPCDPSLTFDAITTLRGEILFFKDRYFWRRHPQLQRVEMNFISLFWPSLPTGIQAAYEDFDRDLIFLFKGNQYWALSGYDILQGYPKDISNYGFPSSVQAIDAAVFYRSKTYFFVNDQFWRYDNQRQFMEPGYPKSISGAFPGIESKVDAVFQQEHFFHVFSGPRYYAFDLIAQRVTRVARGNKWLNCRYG
Reminder: these figures are log10 of reported IC50, in nM before transformation.

Example entries and their recorded answers appear below.
- structure: "O=C(NO)C1(S(=O)(=O)c2ccc(Oc3ccccc3)cc2)CCOCC1"
  log10 of IC50: -0.40
- structure: "O=C(NO)C1(S(=O)(=O)c2ccc(Oc3ccc(OC(F)(F)F)cc3)cc2)CCN(C2CC2)CC1"
  log10 of IC50: 0.08
- structure: "O=C(NO)C1(S(=O)(=O)c2ccc(Oc3cccc(Cl)c3)cc2)CCOCC1"
  log10 of IC50: 0.26
- structure: "O=C(NO)C1(S(=O)(=O)c2ccc(Oc3ccc4c(c3)OCO4)cc2)CCNCC1"
  log10 of IC50: 0.38
- structure: "CC(C)c1ccc(Oc2ccc(S(=O)(=O)C3(C(=O)NO)CCN(C(C)C)CC3)cc2)cc1"
  log10 of IC50: 0.26
- structure: "COCCN1CCC(C(=O)NO)(S(=O)(=O)c2ccc(Oc3ccc(SC(F)(F)F)cc3)cc2)CC1"
  log10 of IC50: 0.28

Problem: // lookup log10 of IC50 for O=C(NO)C1(S(=O)(=O)c2ccc(Oc3ccc(C(F)(F)F)cc3)cc2)CCOCC1
Solution: 0.97

Problem: Entry to check: O=C(NO)C1(S(=O)(=O)c2ccc(Oc3ccc(Cl)cc3)cc2)CCOCC1
Solution: 0.08

Problem: Input C#CCN1CCC(C(=O)NO)(S(=O)(=O)c2ccc(Oc3ccc4c(c3)OCO4)cc2)CC1
Solution: 0.11

The values you see were collected from ChEMBL document CHEMBL1800055.
